The reported numbers originate from ChEMBL document CHEMBL1772956.

In this section, each of the compounds is paired with its reported Ratio Ki.
# Species: Homo sapiens
# measurementDescription: Selectivity ratio of Ki for human kappa opioid receptor over Ki for human delta opioid receptor
Kindly provide the number alone.

Guide cases for Ratio Ki, answers given:
structureNotation: CO[C@@]12CCCC[C@@]13CCN(CC1CCC1)[C@@H]2Cc1ccc(OC(=O)CCCCCCCCC(=O)OCc2ccccc2)cc13
reportedProperty: Ratio Ki
readoutValue: 93
//
structureNotation: c1c2c(cc3sc(NCCCCCCCCCCNc4nc5cc6c(cc5s4)C[C@@H]4[C@@H]5CCCC[C@]65CCN4CC4CC4)nc13)C[C@@H]1[C@@H]3CCCC[C@]23CCN1CC1CC1
reportedProperty: Ratio Ki
readoutValue: 140
//
structureNotation: O=C(CCCCCCCCC(=O)Oc1ccc2c(c1)[C@@]13CCCC[C@@]1(O)[C@@H](C2)N(CC1CCC1)CC3)Oc1ccc2c(c1)[C@@]13CCCC[C@H]1[C@@H](C2)N(CC1CCC1)CC3
reportedProperty: Ratio Ki
readoutValue: 110
//
structureNotation: CO[C@@]12CCCC[C@@]13CCN(CC1CCC1)[C@@H]2Cc1ccc(O)cc13
reportedProperty: Ratio Ki
readoutValue: 58

Request: Query (compound): "C=CCN1CC[C@]23c4c5ccc(OC(=O)CCCCCCCCC(=O)Oc6ccc7c(c6)[C@@]68CCCC[C@@]6(OC)[C@@H](C7)N(CC6CCC6)CC8)c4O[C@H]2C(=O)CC[C@@]3(O)[C@H]1C5" ; field requested: Ratio Ki
Response: 280

Request: Subsequent entry: "O=C(CCCCCCCCC(=O)Oc1ccc2c(c1)[C@@]13CCCC[C@H]1[C@@H](C2)N(CC1CCC1)CC3)Oc1ccc2c(c1)[C@@]13CCCC[C@H]1[C@@H](C2)N(CC1CCC1)CC3"
Response: 90

###

# Organism: Homo sapiens
# measurementDescription: Selectivity ratio of Ki for human kappa opioid receptor over Ki for human mu opioid receptor
In this section, each of the molecules is paired with its reported Ratio Ki.

Guide cases for Ratio Ki, answers given:
structureNotation: C=CCN1CC[C@]23c4c5ccc(OC(=O)CCCCCCCCC(=O)Oc6ccc7c(c6)[C@@]68CCCC[C@@]6(OC)[C@@H](C7)N(CC6CCC6)CC8)c4O[C@H]2C(=O)CC[C@@]3(O)[C@H]1C5
Ratio Ki: 4
--
structureNotation: O=C(CCCCCCCCC(=O)Oc1ccc2c(c1)[C@@]13CCCC[C@H]1[C@@H](C2)N(CC1CCC1)CC3)Oc1ccc2c(c1)[C@@]13CCCC[C@H]1[C@@H](C2)N(CC1CCC1)CC3
Ratio Ki: 2

Now for a further molecule.
Request: Query (molecule): "c1c2c(cc3sc(NCCCCCCCCCCNc4nc5cc6c(cc5s4)C[C@@H]4[C@@H]5CCCC[C@]65CCN4CC4CC4)nc13)C[C@@H]1[C@@H]3CCCC[C@]23CCN1CC1CC1" ; field requested: Ratio Ki
Response: 9

###

# targetOfAssay: Kappa-type opioid receptor (Homo sapiens, UniProt P41145)
# Sequence (P41145 whole entry): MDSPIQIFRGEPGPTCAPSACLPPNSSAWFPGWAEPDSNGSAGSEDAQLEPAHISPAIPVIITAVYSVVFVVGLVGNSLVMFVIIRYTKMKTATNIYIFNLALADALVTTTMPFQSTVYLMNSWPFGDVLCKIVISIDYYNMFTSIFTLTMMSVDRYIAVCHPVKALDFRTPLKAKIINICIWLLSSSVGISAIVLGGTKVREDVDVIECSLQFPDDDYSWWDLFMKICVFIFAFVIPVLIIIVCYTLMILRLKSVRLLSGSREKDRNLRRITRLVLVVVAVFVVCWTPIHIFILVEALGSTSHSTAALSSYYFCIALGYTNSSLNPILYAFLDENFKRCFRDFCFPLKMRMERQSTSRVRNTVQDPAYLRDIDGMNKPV
# measurementDescription: Antagonist activity at human kappa-opioid receptor expressed in CHO cells assessed as inhibition of U69593-induced [35S]GTPgammaS binding after 60 mins by scintillation counting relative to control
# Format: functional, cell-based
Active and inactive are the calls of the source. No cut-off for these calls is given here.
reportedProperty: Imax

structureNotation: O=C(CCCCCCCCC(=O)Nc1nc2cc3c(cc2s1)C[C@@H]1[C@@H]2CCCC[C@]32CCN1CC1CC1)Nc1nc2cc3c(cc2s1)C[C@@H]1[C@@H]2CCCC[C@]32CCN1CC1CC1
Imax: inactive
//
structureNotation: c1c2c(cc3sc(NCCCCCCCCCCNc4nc5cc6c(cc5s4)C[C@@H]4[C@@H]5CCCC[C@]65CCN4CC4CC4)nc13)C[C@@H]1[C@@H]3CCCC[C@]23CCN1CC1CC1
Imax: inactive
//
structureNotation: C=CCN1CC[C@]23c4c5ccc(OC(=O)CCCCCCCCC(=O)Oc6ccc7c(c6)[C@@]68CCCC[C@@]6(O)[C@@H](C7)N(CC6CCC6)CC8)c4O[C@H]2C(=O)CC[C@@]3(O)[C@H]1C5
Imax: 35%
//
structureNotation: O=C(CCCCCCCCC(=O)Oc1ccc2c(c1)[C@@]13CCCC[C@@]1(O)[C@@H](C2)N(CC1CCC1)CC3)Oc1ccc2c(c1)[C@@]13CCCC[C@H]1[C@@H](C2)N(CC1CCC1)CC3
Imax: 23%

Now for a further molecule.
Request: Query (molecule): "CO[C@@]12CCCC[C@@]13CCN(CC1CCC1)[C@@H]2Cc1ccc(OC(=O)CCCCCCCCC(=O)Oc2ccc4c(c2)[C@@]25CCCC[C@@]2(OC)[C@@H](C4)N(CC2CCC2)CC5)cc13" ; field requested: Imax
Response: 43%
